- Method Summary: Lipophilicity as RM values by RP-TLC
- Type: physicochemical
- Set-up: key: RM = log[(1/Rf) − 1]
- Condition Summary: MeOH:H2O (70/30), average of at least 5 measurements
Reported Metric: RM (±SD)

Determine from records and report RM (±SD) for CC(C)N(CC(O)COc1ccc(CC(N)=O)cc1)C(=O)/C=C/c1cccc(Oc2ccccc2)c1 (stereo not shown)
0.128 ± 0.0204

Determine from records and report RM (±SD) for O=C(/C=C/c1ccccc1)OCCN(Cc1ccccc1)C(=O)/C=C/c1ccccc1 [Compound 1f, 2-(N-benzylcinnamamido) ethyl cinnamate]
0.1402 ± 0.0227

Determine from records and report RM (±SD) for O=C(O)/C=C/c1cccc(Oc2ccccc2)c1 [Compound 2, (E)-3-(3-phenoxyphenyl)acrylic acid]
−0.41 ± 0.016

Determine from records and report RM (±SD) for O=C(/C=C/c1ccccc1)Oc1cccc2ccccc12 [Compound 1d, (E)-naphthalen-1-yl cinnamate]
0.0889 ± 0.002

---

- Test System: soybean lipoxygenase (Glycine max)
- Construct: purchased Sigma Chemical, Co. (St. Louis, MO, USA)
- Sequence (P08170 1-839): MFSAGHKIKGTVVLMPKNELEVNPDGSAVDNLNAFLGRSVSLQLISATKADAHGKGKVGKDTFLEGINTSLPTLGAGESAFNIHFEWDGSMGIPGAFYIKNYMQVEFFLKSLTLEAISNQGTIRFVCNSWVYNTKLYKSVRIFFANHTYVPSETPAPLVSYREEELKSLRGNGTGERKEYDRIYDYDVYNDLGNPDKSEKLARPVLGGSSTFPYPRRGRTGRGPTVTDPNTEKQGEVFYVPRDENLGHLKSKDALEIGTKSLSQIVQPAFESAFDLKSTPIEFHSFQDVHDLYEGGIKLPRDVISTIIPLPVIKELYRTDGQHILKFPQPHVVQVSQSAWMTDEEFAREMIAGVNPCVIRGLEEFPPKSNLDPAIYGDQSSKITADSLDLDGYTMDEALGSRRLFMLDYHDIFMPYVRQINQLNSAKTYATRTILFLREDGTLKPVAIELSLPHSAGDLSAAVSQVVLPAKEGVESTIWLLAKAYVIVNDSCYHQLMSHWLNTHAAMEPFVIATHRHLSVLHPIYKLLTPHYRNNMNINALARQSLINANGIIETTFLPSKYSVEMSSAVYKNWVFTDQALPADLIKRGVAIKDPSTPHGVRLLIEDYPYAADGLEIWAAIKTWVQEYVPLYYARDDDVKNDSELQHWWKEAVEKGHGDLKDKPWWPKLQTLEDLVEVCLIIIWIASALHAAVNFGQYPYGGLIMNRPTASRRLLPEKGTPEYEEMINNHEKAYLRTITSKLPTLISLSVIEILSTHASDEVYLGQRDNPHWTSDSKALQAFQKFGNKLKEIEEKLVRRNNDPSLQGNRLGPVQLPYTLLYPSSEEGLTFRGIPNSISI
- Method Summary: Soybean lipoxygenase inhibition in vitro (UV-based enzyme assay)
- Format: biochemical
- Condition Summary: sodium linoleate substrate, tris buffer pH 9; read-out: IC50 μΜ, inhibition of soybean lipoxygenase
Reported Metric: pIC50
Field pIC50 (float): negative decimal logarithm of the concentration in molar.

Determine from records and report pIC50 for O=C(/C=C/c1ccccc1)Oc1cccc2ccccc12 [Compound 1d, (E)-naphthalen-1-yl cinnamate]
4.56

Determine from records and report pIC50 for CC(C)N(CC(O)COc1cccc2ccccc12)C(=O)/C=C/c1ccccc1 (centres unmarked)
4.30

Determine from records and report pIC50 for O=C(O)/C=C/c1cccc(Oc2ccccc2)c1 [Compound 2, (E)-3-(3-phenoxyphenyl)acrylic acid]
4.18

Determine from records and report pIC50 for COc1ccc(/C=C/C(=O)N(CC(O)COc2ccc(CC(N)=O)cc2)C(C)C)cc1OC (centres unmarked)
5.00

Determine from records and report pIC50 for CC(C)N(CC(O)COc1ccc(CC(N)=O)cc1)C(=O)/C=C/c1cccc(Oc2ccccc2)c1 (centres unmarked)
4.46

Determine from records and report pIC50 for CC(C)NCC(O)COc1ccc(CC(N)=O)cc1 (centres unmarked) [Atenolol, atenolol, reference compound]
4.65

Determine from records and report pIC50 for CC(C)N(CC(O)COc1ccc(CC(N)=O)cc1)C(=O)/C=C/c1ccccc1 (centres unmarked)
4.18

Determine from records and report pIC50 for COc1ccc(/C=C/C(=O)N(CC(O)COc2cccc3ccccc23)C(C)C)cc1OC (centres unmarked)
5.00

---

Record form. Attribute: pIC50. Fill in for each entry.
- Test System: trypsin (Bos taurus)
- Sequence (P00760 24-246): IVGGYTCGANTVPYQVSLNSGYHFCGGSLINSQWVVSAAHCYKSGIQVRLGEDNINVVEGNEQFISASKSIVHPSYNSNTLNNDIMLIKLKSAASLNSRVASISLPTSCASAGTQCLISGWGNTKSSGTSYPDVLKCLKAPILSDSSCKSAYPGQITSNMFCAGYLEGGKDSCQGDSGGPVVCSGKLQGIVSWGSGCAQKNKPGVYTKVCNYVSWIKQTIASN
- Method Summary: Inhibition of trypsin induced proteolysis in vitro (modified Kunitz method)
- Condition Summary: bovine albumin substrate, pH 7.6, 37 °C; read-out: IC50 μΜ, inhibition of trypsin induced proteolysis
Field pIC50 (float): negative decimal logarithm of the concentration in molar.

Provide pIC50, tested on trypsin (Bos taurus), for CC(C)N(C[C@H](O)COc1cccc2ccccc12)C(=O)/C=C/c1cccc(Oc2ccccc2)c1 .
5.56

Provide pIC50, tested on trypsin (Bos taurus), for COc1ccc(/C=C/C(=O)N(CC(O)COc2ccc(CC(N)=O)cc2)C(C)C)cc1OC (stereo not drawn) .
6.00

Provide pIC50, tested on trypsin (Bos taurus), for O=C(/C=C/c1ccccc1)OCCN(Cc1ccccc1)C(=O)/C=C/c1ccccc1 [Compound 1f, 2-(N-benzylcinnamamido) ethyl cinnamate] .
4.00

Provide pIC50, tested on trypsin (Bos taurus), for O=C(/C=C/c1ccccc1)OC12CC3CC(CC(C3)C1)C2 [Compound 1c, (E)-adamantan-1-yl cinnamate] .
4.31

Provide pIC50, tested on trypsin (Bos taurus), for CC(C)N(CC(O)COc1cccc2ccccc12)C(=O)/C=C/c1cccc(Oc2ccccc2)c1 (stereo not drawn) .
6.37

Provide pIC50, tested on trypsin (Bos taurus), for CC(C)N(CC(O)COc1cccc2ccccc12)C(=O)/C=C/c1ccccc1 (stereo not drawn) .
5.00

Provide pIC50, tested on trypsin (Bos taurus), for CC(C)N(CC(O)COc1ccc(CC(N)=O)cc1)C(=O)/C=C/c1cccc(Oc2ccccc2)c1 (stereo not drawn) .
6.49

Provide pIC50, tested on trypsin (Bos taurus), for COc1ccc(/C=C/C(=O)N(CC(O)COc2cccc3ccccc23)C(C)C)cc1OC (stereo not drawn) .
6.29

Provide pIC50, tested on trypsin (Bos taurus), for CC(C)N(CC(O)COc1ccc(CC(N)=O)cc1)C(=O)/C=C/c1ccccc1 (stereo not drawn) .
6.50

Data provenance is paper PMC6152057.
